B1: PPFIA4 (parent)
chain: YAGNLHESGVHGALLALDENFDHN

Variants of: B1
measurement_description: protein stability index of a GFP-peptide fusion (GPS, HEK-293T) (PSI 1-6); higher = more stable;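 also: lentivirally expressed fusions sorted by FACS into six bins by GFP to DsRed ratio, PSI derived from sequencing read proportions per bin multiplied by bin number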
measurement_context: c terminus: a fixed tail appended
experimental_endpoint: protein stability index
Form field (numeric): enter value without unit.

* YAGNLHESGVHGALLLLDENFDHN | 2.36

IN: Which protein stability index is reported for this variant? YAGNLHESGVHGALLALDENFDHK
OUT: 2.02

IN: // next record YAGNLHESGVHGALLALDENIDHN
OUT: 2.69

IN: // next record YAYNLHESGVHGALLALDENFDHN
OUT: 1.99

IN: // next record YAGNLHESKVHGALLALDENFDHN
OUT: 2.68

IN: // next record YAGNLHESGVHGALLALDENRDHN
OUT: 2.53

IN: // next record YAGNLHESAVHGALLALDENFDHN
OUT: 2.46

IN: // next record YAGNLHESGVHGALLALDENFIHN
OUT: 2.11

Origin of measurements: the supplement of paper PMC10567573
